Record form. Attribute: maximal absorbance value. Fill in for each entry.
- target_or_test_system: tetanus neurotoxin (TeNT), authentic tetanus holotoxin (Clostridium tetani, UniProt P04958 2-1315)
- Sequence (P04958 2-457 limits assumed, chain 1 of 2): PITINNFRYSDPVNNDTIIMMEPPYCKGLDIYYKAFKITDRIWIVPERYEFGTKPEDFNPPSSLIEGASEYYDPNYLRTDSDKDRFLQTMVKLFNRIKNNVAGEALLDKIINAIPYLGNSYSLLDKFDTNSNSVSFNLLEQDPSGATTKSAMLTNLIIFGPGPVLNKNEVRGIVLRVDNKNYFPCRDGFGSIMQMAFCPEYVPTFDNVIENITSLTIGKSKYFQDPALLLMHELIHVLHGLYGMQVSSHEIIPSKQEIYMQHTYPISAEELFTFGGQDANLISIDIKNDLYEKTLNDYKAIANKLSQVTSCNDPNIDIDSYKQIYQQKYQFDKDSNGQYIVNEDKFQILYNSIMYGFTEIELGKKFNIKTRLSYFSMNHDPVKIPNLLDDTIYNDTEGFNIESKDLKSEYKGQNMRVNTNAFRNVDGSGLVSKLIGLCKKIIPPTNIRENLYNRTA
- Sequence (P04958 458-1315 limits assumed, chain 2 of 2): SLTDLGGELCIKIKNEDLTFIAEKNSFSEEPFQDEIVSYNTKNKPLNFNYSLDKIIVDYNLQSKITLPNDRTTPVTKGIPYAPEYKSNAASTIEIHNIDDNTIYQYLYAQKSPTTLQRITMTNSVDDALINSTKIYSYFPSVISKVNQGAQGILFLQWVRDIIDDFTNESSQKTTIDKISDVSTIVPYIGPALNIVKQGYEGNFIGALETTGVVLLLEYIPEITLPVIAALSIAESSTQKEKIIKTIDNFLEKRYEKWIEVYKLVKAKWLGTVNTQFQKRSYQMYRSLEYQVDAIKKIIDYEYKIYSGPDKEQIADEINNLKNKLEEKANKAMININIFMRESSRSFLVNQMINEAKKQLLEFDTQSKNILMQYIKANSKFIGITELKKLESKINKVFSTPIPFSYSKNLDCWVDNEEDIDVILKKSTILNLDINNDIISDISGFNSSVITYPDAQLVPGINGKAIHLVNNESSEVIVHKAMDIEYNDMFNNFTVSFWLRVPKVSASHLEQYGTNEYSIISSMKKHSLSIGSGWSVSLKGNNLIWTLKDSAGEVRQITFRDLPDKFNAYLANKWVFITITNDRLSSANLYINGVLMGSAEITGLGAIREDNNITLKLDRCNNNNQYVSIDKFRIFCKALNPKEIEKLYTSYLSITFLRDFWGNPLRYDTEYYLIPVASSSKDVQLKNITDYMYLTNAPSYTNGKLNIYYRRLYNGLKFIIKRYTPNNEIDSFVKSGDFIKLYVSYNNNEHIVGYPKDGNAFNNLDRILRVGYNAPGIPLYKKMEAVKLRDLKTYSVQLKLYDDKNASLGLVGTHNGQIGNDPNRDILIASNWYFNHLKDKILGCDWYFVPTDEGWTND
- procedure_details: ELISA: directly coated TeNT, anti-his6 PO
Response body: numeric value in A450, unit text excluded.

The binder SVT15-3FW4M-GS2-SVA12M2-H6 (bispecific antibody) QVQLQESGGGLVQTGGSLRLSCRASGRAFANYHFGWFRQAPGKDREFVASISWKGGSTYYANFALGRFTSSVDRAESSVYLQMSGLTPEDTATYYCAAHDGGDWNYHTGMDYWGQGTQVTVSSGGGGSGGGSEVQLVESGGGLVQAGGSLRLSCAASGRTFSYYPMAWFRQAPGQEREFVAAIIGADTTYYADSLKGRFTISRDNAKNMVYLQMNSLKPEDTAVYYCAARNTYWSDVYYREGQYTNWGQGTQVTVSSHHHHHH showed maximal absorbance value equal to 1.35

The binder SVT15-3FW4M-GS2-SVG13M4-H6 (bispecific antibody) QVQLQESGGGLVQTGGSLRLSCRASGRAFANYHFGWFRQAPGKDREFVASISWKGGSTYYANFALGRFTSSVDRAESSVYLQMSGLTPEDTATYYCAAHDGGDWNYHTGMDYWGQGTQVTVSSGGGGSGGGSEVQLVESGGGLVQPGGSLRLSCEASGFTFDDYGMSWVRQAPGKGLEWVSSLTPNGGSTYYADSVKGRFTISRDNAKNTLYLQMNSLKPEDTALYYCAKNSYYGAMDYWGQGTQVTVSSHHHHHH showed maximal absorbance value equal to 1.51
